# Target System: Mcl-1 protein (residues 171-323) (Homo sapiens (Human), UniProt Q07820)
# Sequence (Q07820 171-323): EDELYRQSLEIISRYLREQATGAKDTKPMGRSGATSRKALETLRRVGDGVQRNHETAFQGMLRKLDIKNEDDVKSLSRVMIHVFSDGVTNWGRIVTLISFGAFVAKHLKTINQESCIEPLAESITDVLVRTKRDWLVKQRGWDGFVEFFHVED
pIC50: −log10 of the molar value.
Lab note: anything with pIC50 at or over 8 counts as met; the rest go in not met.

{"Compound": "CNC(=O)Cn1nc2c(c1C)-c1c(Cl)ccc3c1c(C)c(C(=O)O)n3CCCOc1cc(cc3ccccc13)SCc1cc(nn1C)CSC2 [Cpd. No. 10]", "Assigned Label": "met"}
{"Compound": "COCCN1Cc2cc(n(C)n2)CSc2cc(c3ccc(F)cc3c2)OCCCn2c(C(=O)O)c(C)c3c(c(Cl)ccc32)-c2c(nn3c2COCC3)C1 [Cpd. No. 50]", "Assigned Label": "not met"}

* * *

# Tested on: NCI-H929 cells
# Assay Comment: Cell viability assay (NCI-H929 cells), CCK-8
# Assay type: cell-based
# Setup Conditions: Homo sapiens, NCI-H929, 24 h, 5% FBS

{"Compound": "Cc1c(C(=O)O)n2c3ccc(Cl)c(c13)-c1c(nn3c1COCC3)CN(S(C)(=O)=O)Cc1cc(n(C)n1)CSc1cc(c3ccc(F)cc3c1)OCCC2 [Cpd. No. 30]", "Units Symbol": "nM", "IC50": 1850}
{"Compound": "Cc1nn(C)c2c1-c1c(Cl)ccc3c1c(C)c(C(=O)O)n3CCCOc1cc(cc3ccccc13)SCc1cc(nn1C)CN(S(C)(=O)=O)C2 [Cpd. No. 48]", "Units Symbol": "nM", "IC50": 243}
{"Compound": "Cc1c(C(=O)O)n2c3ccc(Cl)c(c13)-c1c(nn3c1CC(C)(C)C3)CSCc1cc(n(C)n1)CSc1cc(c3ccc(F)cc3c1)OCCC2 [Cpd. No. 3]", "Units Symbol": "nM", "IC50": 391}

* * *

# Assay Comment: Microsome clearance assay, human
# Assay type: in vitro ADME
# Setup Conditions: human, pooled liver microsomes, pH 7.4, human liver microsomes, 0.5 mg/ml protein, 1 mM NADPH, 60 minutes, read-out: Human Liver Microsome Clint (μL/min/mg protein)
Below, each entry is listed alongside its reported microsomal CLint at 5 μM.

{"Compound Structure": "Cc1c(C(=O)O)n2c3ccc(Cl)c(c13)-c1c(nn(C)c1C)CN(C(C)C)Cc1cc(n(C)n1)CSc1cc(c3ccc(F)cc3c1)OCCC2", "microsomal CLint at 5 μM, µL/min/mg": 18.6}
{"Compound Structure": "Cc1c(C(=O)O)n2c3ccc(Cl)c(c13)-c1c(nn(C)c1C)CN(S(C)(=O)=O)Cc1cc(n(C)n1)CSc1cc(c3ccccc3c1)OCCC2", "microsomal CLint at 5 μM, µL/min/mg": 8}
{"Compound Structure": "COCCn1nc2c(c1C)-c1c(Cl)ccc3c1c(C)c(C(=O)O)n3CCCOc1cc(cc3ccccc13)SCc1cc(nn1C)CSC2", "microsomal CLint at 5 μM, µL/min/mg": 39.6}

* * *

Please consider the recorded IC50 for Mcl-1 protein (residues 171-323) (Homo sapiens (Human), UniProt Q07820) in what follows.

{"Compound": "Cc1c2c(nn1C)CSCc1cc(n(C)n1)CSc1cc(c3ccc(F)cc3c1)OCCCn1c(C(=O)O)c(F)c3c-2c(Cl)ccc31 [Cpd. No. 19]", "IC50": "10 nM"}
{"Compound": "Cc1c(C(=O)O)n2c3ccc(Cl)c(c13)-c1c(nn3c1COCC3)CSCc1cc(n(C)n1)CSc1cc(c3ccc(F)cc3c1)OCCC2 [Cpd. No. 4]", "IC50": "14 nM"}
{"Compound": "Cc1c(C(=O)O)n2c3ccc(Cl)c(c13)-c1c(nn(C)c1C)CSCc1cc(n(C)n1)CSc1cc(c3ccccc3c1)OCCC2 [Cpd. No. 5]", "IC50": "17 nM"}

The origin of these recorded values is patent US11691989B2.
